- target of assay: UniProt:Q06124
- test protocol: SHP2 Biochemical Assay (DiFMUP conversion, pIRS1-activated)
- test parameters: Table 19; head prints unit as "-M"
pIC50: −log10 of the molar value.

{"molecule": "CCn1cc2c(Cl)c(-c3c[nH]c4nc(N5C6CCCC5CNC6)n(C)c(=O)c34)ccc2n1", "pIC50": 8.09}
{"molecule": "Cn1nc2ccc(-c3c[nH]c4nc(N5C6CCCC5CNC6)n(C)c(=O)c34)c(F)c2c1Cl", "pIC50": 8.22}
{"molecule": "Cn1c(N2[C@@H]3CC[C@H]2C[C@@H](N)C3)nc2[nH]cc(-c3ccc4nn(C(C)(C)C)cc4c3Cl)c2c1=O", "pIC50": 7.03}
{"molecule": "Cn1cc2c(Cl)c(-c3n[nH]c4nc(N5[C@@H]6CC[C@H]5[C@H](F)[C@@H](N)C6)n(C)c(=O)c34)ccc2n1", "pIC50": 6.54}
{"molecule": "Cn1cc2c(Cl)c(-c3c[nH]c4nc(N5[C@@H]6CC[C@H]5[C@H](F)[C@H](N)C6)n(C)c(=O)c34)ccc2n1 (racemic)", "pIC50": 7.96}
{"molecule": "Cn1c(N2C3CCC2CC(N)C3)nc2[nH]cc(-c3cc4nnn(C)c4c(F)c3F)c2c1=O (stereo not shown)", "pIC50": 6.59}
{"molecule": "Cn1c(N2C3CCCC2CNC3)nc2[nH]nc(-c3ccc4ncsc4c3Cl)c2c1=O", "pIC50": 8.10}

---

- target of assay: SHP2 (Homo sapiens (Human), UniProt Q06124)
- Sequence (Q06124 whole entry): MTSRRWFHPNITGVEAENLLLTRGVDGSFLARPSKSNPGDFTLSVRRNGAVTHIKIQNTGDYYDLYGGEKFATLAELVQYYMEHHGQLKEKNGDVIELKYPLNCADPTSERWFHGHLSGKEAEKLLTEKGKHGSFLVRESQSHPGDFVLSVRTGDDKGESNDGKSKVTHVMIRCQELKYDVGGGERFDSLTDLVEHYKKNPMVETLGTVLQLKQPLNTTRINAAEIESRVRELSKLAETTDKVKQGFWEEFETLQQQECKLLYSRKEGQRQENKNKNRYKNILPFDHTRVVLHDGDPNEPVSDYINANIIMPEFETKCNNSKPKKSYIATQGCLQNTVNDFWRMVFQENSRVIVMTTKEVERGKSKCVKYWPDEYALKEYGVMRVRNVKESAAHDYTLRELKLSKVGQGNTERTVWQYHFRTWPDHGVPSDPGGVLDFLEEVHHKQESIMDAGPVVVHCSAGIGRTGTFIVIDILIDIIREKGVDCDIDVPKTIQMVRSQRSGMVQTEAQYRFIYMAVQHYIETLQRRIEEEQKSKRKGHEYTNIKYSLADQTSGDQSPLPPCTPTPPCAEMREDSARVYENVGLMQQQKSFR
- test protocol: SHP2 Biochemical Assay (DiFMUP conversion, pIRS1-activated)
- test parameters: Table 19; head prints unit as "-M"
pIC50: −log10 of the molar value.

{"molecule": "Cn1cc2c(Cl)c(-c3c[nH]c4nc(N5[C@@H]6CC[C@H]5C[C@@](C)(N)C6)n(C)c(=O)c34)ccc2n1", "pIC50": 7.96}
{"molecule": "CCn1cc2c(Cl)c(-c3n[nH]c4nc(N5C6CCCC5CNC6)n(C)c(=O)c34)ccc2n1", "pIC50": 7.59}
{"molecule": "C[C@@H]1OCC2(CCN(c3nc4[nH]cc(-c5ccc6nn(C)cc6c5Cl)c4c(=O)n3C)CC2)[C@@H]1N", "pIC50": 8.26}
{"molecule": "Cn1cc2c(Cl)c(-c3c[nH]c4nc(N5CCC6NCC6C5)n(C)c(=O)c34)ccc2n1 (stereo not shown)", "pIC50": 7.02}
{"molecule": "CN[C@@H]1C[C@@H]2CC[C@H]1N2c1nc2[nH]nc(-c3ccc4nn(C)c(Cl)c4c3F)c2c(=O)n1C", "pIC50": 7.80}
{"molecule": "Cn1cc2c(Cl)c(-c3c[nH]c4nc(N5CC[C@@](C)(N)C5)n(C)c(=O)c34)ccc2n1", "pIC50": 7.13}
{"molecule": "CCn1cc2c(Cl)c(-c3n[nH]c4nc(N5[C@H]6CC[C@@H]5[C@H](N)C6)n(C)c(=O)c34)ccc2n1", "pIC50": 7.89}

---

- target of assay: SHP2 (Homo sapiens (Human))
- test protocol: SHP2 Biochemical Assay (DiFMUP conversion, pIRS1-activated)
- test parameters: Table 19; head prints unit as "-M"
pIC50: −log10 of the molar value.

{"molecule": "Cn1cc2c(Cl)c(-c3c[nH]c4nc(N5[C@@H]6CC[C@@H](N)[C@H]5CC6)n(C)c(=O)c34)ccc2n1 (racemic) [Example 152]", "target of assay": "SHP2 (Homo sapiens (Human))", "pIC50": 7.54}
{"molecule": "CN[C@@H]1C[C@@H]2CC[C@H]1N2c1nc2[nH]nc(-c3ccc4nn(C)cc4c3Cl)c2c(=O)n1C [Example 120]", "target of assay": "SHP2 (Homo sapiens (Human))", "pIC50": 7.54}
{"molecule": "Cn1cc2c(Cl)c(-c3c[nH]c4nc(N5[C@@H]6CC[C@H]5[C@@H](N)C6)n(C)c(=O)c34)ccc2n1 [Example 46]", "target of assay": "SHP2 (Homo sapiens (Human))", "pIC50": 7.48}
{"molecule": "CCn1nc2ccc(-c3c[nH]c4nc(N5[C@H]6CC[C@@H]5[C@H](N)C6)n(C)c(=O)c34)c(Cl)c2c1CO [Example 110]", "target of assay": "SHP2 (Homo sapiens (Human))", "pIC50": 7.85}
{"molecule": "CCn1nc2ccc(-c3n[nH]c4nc(N5[C@H]6CC[C@@H]5[C@H](NC)C6)n(C)c(=O)c34)c(Cl)c2c1Cl [Example 128]", "target of assay": "SHP2 (Homo sapiens (Human))", "pIC50": 7.96}
{"molecule": "Cn1cc2c(Cl)c(-c3c[nH]c4nc(N5CCC6(CCCN6)CC5)n(C)c(=O)c34)ccc2n1 [Example 38]", "target of assay": "SHP2 (Homo sapiens (Human))", "pIC50": 7.13}
{"molecule": "Cn1nc2ccc(-c3n[nH]c4nc(N5[C@H]6CC[C@@H]5[C@H](N)C6)n(C)c(=O)c34)c(Cl)c2c1Cl [Example 114]", "target of assay": "SHP2 (Homo sapiens (Human))", "pIC50": 8.26}

---

- target of assay: SHP2 (Homo sapiens (Human), UniProt Q06124)
- test protocol: SHP2 Biochemical Assay (DiFMUP conversion, pIRS1-activated)
- test parameters: Table 19; head prints unit as "-M"
pIC50: −log10 of the molar value. Where a name gives a salt, the structure may show the parent alone.
Label rule, in plain words: pIC50 of 8 and up is yes, under 8 is no.

{"molecule": "COC1(CN)CCN(c2nc3[nH]cc(-c4ccc5nn(C)cc5c4Cl)c3c(=O)n2C)CC1", "class assignment": "no"}
{"molecule": "Cn1c(N2C[C@@H]3CC[C@H]2[C@H]3N)nc2[nH]nc(-c3ccc4ncsc4c3Cl)c2c1=O (racemic)", "class assignment": "yes"}
{"molecule": "Cn1cc2c(Cl)c(-c3c[nH]c4nc(N5CCC6(CCCCN6)CC5)n(C)c(=O)c34)ccc2n1", "class assignment": "no"}
{"molecule": "Cn1cc2c(Cl)c(-c3n[nH]c4nc(N5CCC6(CC5)CNC6)n(C)c(=O)c34)ccc2n1", "class assignment": "no"}
{"molecule": "Cn1cc2c(Cl)c(-c3c[nH]c4nc(N5CCN[C@H](CO)C5)n(C)c(=O)c34)ccc2n1", "class assignment": "no"}
{"molecule": "Cn1cc2c(Cl)c(-c3c[nH]c4nc(N5CCC(F)(CN)CC5)n(C)c(=O)c34)ccc2n1", "class assignment": "no"}
{"molecule": "CN(C)C(=O)CCn1cc2c(Cl)c(-c3c[nH]c4nc(N5C6CCC5CNC6)n(C)c(=O)c34)ccc2n1", "class assignment": "no"}
{"molecule": "Cn1cc2c(F)c(-c3c[nH]c4nc(N5[C@@H]6CC[C@H]5C[C@@H](N)C6)n(C)c(=O)c34)ccc2n1", "class assignment": "no"}
{"molecule": "CCn1cc2c(Cl)c(-c3n[nH]c4nc(N5CCC6(CC5)CO[C@@H](C)[C@H]6N)n(C)c(=O)c34)ccc2n1 [Example 148, hydrochloride salt]", "class assignment": "no"}
{"molecule": "Cc1nc2ccc(-c3c[nH]c4nc(N5[C@H]6CC[C@@H]5[C@H](N)C6)n(C)c(=O)c34)c(Cl)c2s1", "class assignment": "yes"}
{"molecule": "Cn1c(N2C3CCCC2CNC3)nc2[nH]cc(-c3ccc4ncsc4c3Cl)c2c1=O", "class assignment": "yes"}
{"molecule": "Cn1cc2c(Cl)c(-c3n[nH]c4nc(N5[C@@H]6CC[C@H]5C[C@@H](N)C6)n(C)c(=O)c34)ccc2n1", "class assignment": "no"}
{"molecule": "Cn1c(N2[C@H]3CC[C@@H]2[C@H](N)C3)nc2[nH]cc(-c3ccc4nn(CF)c(Cl)c4c3Cl)c2c1=O", "class assignment": "yes"}
{"molecule": "Cc1nc2ccc(-c3n[nH]c4nc(N5[C@H]6CC[C@@H]5[C@H](N)C6)n(C)c(=O)c34)c(Cl)c2s1", "class assignment": "yes"}
{"molecule": "Cn1cc2c(Cl)c(-c3n[nH]c4nc(N5C6CCC5CNC6)n(C)c(=O)c34)ccc2n1", "class assignment": "no"}
{"molecule": "CCn1cc2c(Cl)c(-c3c[nH]c4nc(N5C[C@H]6CC[C@@H]5[C@@H]6N)n(C)c(=O)c34)ccc2n1 (stereo in doubt)", "class assignment": "yes"}
{"molecule": "CN[C@@H]1C[C@@H]2CC[C@H]1N2c1nc2[nH]cc(-c3ccc4ncsc4c3Cl)c2c(=O)n1C", "class assignment": "yes"}
{"molecule": "Cn1cc2c(Cl)c(-c3c[nH]c4nc(N5C6CNCC5C6)n(C)c(=O)c34)ccc2n1", "class assignment": "no"}
{"molecule": "CN[C@H]1[C@H]2CC[C@@H]1N(c1nc3[nH]cc(-c4ccc5nn(C)cc5c4Cl)c3c(=O)n1C)C2 (racemic)", "class assignment": "no"}
{"molecule": "C[C@@H]1OCC2(CCN(c3nc4[nH]nc(-c5ccc6nn(C)cc6c5Cl)c4c(=O)n3C)CC2)[C@@H]1N", "class assignment": "no"}
